target: T1, cell surface human mesothelin (MSLN) (human, UniProt Q13421 296-598); experiment: flow cytometry, NCI-H226 cells + 20 nM soluble MSLN
T1 construct: whole, on cells; also called cell surface MSLN
T1 sequence (Q13421 other isoform, or with tags, fused parts or gaps limits assumed): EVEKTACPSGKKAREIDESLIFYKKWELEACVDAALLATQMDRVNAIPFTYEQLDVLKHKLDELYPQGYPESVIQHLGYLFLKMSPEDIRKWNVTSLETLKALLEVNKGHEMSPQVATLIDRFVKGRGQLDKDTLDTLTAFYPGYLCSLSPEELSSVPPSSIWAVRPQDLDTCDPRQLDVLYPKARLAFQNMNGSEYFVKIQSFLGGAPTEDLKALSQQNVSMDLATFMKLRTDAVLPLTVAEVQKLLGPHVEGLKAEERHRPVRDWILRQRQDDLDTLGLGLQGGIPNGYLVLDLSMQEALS
Consider the following binders; for each one, report its EC50.
Give the value in nM but do not write nM after it.

EC50 recorded for this binder, FS22-053-008-AA/FS28-256-018 mAb^2 (bispecific antibody, human IgG1, kappa, L234A L235A, V domains shown) VH: EVQLLESGGGLVQPGGSLRLSCAASGFTFTQTYMSWVRQAPGKGLEWVSNISPTYSTTNYADSVKGRFTISRDNSKNTLYLQMNSLRAEDTAVYYCARYNAYQIGLDYWGQGTLVTVSS VL: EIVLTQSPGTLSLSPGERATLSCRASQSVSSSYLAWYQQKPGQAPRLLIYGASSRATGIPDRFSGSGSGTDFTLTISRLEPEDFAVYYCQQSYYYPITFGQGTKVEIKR , is 4.6

EC50 recorded for this binder, FS22-053-008-AA/FS28-024-053 mAb^2 (bispecific antibody, human IgG1, kappa, L234A L235A, V domains shown, also called FS28-024-53) VH: EVQLLESGGGLVQPGGSLRLSCAASGFTLSYSSMSWVRQAPGKGLEWVSFITPSTGYTHYADSVKGRFTISRDNSKNTLYLQMNSLRAEDTAVYYCARRALVFDYWGQGTLVTVSS VL: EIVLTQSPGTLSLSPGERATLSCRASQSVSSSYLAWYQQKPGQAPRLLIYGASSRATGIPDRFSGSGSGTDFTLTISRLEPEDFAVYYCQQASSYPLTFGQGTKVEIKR , is 7.52

EC50 recorded for this binder, FS22-053-008-AA/FS28-256-005 mAb^2 (bispecific antibody, human IgG1, kappa, L234A L235A, V domains shown) VH: EVQLLESGGGLVQPGGSLRLSCAASGFTFTETYMSWVRQAPGKGLEWVSNISPTYSTTNYADSVKGRFTISRDNSKNTLYLQMNSLRAEDTAVYYCARYNSYQGGLDYWGQGTLVTVSS VL: EIVLTQSPGTLSLSPGERATLSCRASQSVSSSYLAWYQQKPGQAPRLLIYGASSRATGIPDRFSGSGSGTDFTLTISRLEPEDFAVYYCQQALGYPHTFGQGTKVEIKR , is 3.91

// provenance: patent US20220267421A1
